meta.source: paper PMC8739840

# studyTarget: σ1R (Cavia porcellus)
# Sequence (Q60492 whole entry): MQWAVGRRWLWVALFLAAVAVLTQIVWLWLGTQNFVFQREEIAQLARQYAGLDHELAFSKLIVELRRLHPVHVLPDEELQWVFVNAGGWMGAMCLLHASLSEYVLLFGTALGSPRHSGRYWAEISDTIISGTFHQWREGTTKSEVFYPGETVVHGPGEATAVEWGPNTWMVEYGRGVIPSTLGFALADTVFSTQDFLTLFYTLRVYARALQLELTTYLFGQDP
# protocolDetails: σ1R radioligand binding ([3H](+)-pentazocine, brain cortex membranes)
# conditionContext: σ1R Ki, mean [CI 95%]; [3H](+)-pentazocine

structureSmilesString: CC(C)(C)c1ccc(OCCCN2CCN(c3ccncc3)CC2)cc1
Ki: 112 nM

structureSmilesString: CCC(=O)c1ccc(OCCCCCCN2CCN(c3ccncc3)CC2)cc1
Ki: 248 nM

structureSmilesString: CCC(=O)c1ccc(OCCCCCCCCN2CCN(c3ccncc3)CC2)cc1
Ki: 274 nM

structureSmilesString: O=C(c1ccc(OCCCN2CCC(c3ccncc3)CC2)cc1)C1CC1
Ki: 3.64 nM

structureSmilesString: CCC(C)(C)c1ccc(OCCCCN2CCN(c3ccncc3)CC2)cc1
Ki: 285 nM

structureSmilesString: O=C(c1ccc(OCCCN2CCN(c3ccncc3)CC2)cc1)C1CC1
Ki: 1530 nM

structureSmilesString: O=C(c1ccccc1)c1ccc(OCCCN2CCN(c3ccncc3)CC2)cc1
Ki: 726 nM

structureSmilesString: CC(=O)c1ccc(OCCCN2CCN(c3ccncc3)CC2)cc1
Ki: 1410 nM

structureSmilesString: c1ccc(-c2ccc(OCCCN3CCN(c4ccncc4)CC3)cc2)cc1
Ki: 638 nM

structureSmilesString: O=C(c1ccc(Cl)cc1)c1ccc(OCCCN2CCN(c3ccncc3)CC2)cc1
Ki: 641 nM

structureSmilesString: CC(C)(C)c1ccc(OCCCCN2CCN(c3ccncc3)CC2)cc1
Ki: 51.8 nM

structureSmilesString: O=C(c1ccc(F)cc1)c1ccc(OCCCN2CCN(c3ccncc3)CC2)cc1
Ki: 1310 nM

structureSmilesString: CC(=O)c1ccc(OCCCCCCN2CCN(c3ccncc3)CC2)cc1
Ki: 37.8 nM

structureSmilesString: CC(=O)c1ccc(OCCCCCCCCN2CCN(c3ccncc3)CC2)cc1
Ki: 408 nM

structureSmilesString: c1ccc(-c2ccc(OCCCN3CCCCC3)cc2)cc1
Ki: 4.41 nM

structureSmilesString: O=C(c1ccccc1)c1ccc(OCCCN2CCCCC2)cc1
Ki: 14.8 nM

structureSmilesString: CC(C)(C)c1ccc(OCCCCCCN2CCN(c3ccncc3)CC2)cc1
Ki: 255 nM

structureSmilesString: CCc1ccc(OCCCN2CCN(c3ccncc3)CC2)cc1
Ki: 592 nM

structureSmilesString: CC(=O)c1ccc(OCCCCN2CCN(c3ccncc3)CC2)cc1
Ki: > 10000 nM
